Tested on: NHDF
Assay: Inhibition of PDGF-induced proliferation of NHDF cells
Format: functional, cell-based
Details: Homo sapiens
testReadout: pIC50
Convention used: pIC50 is expressed as -log10 of the molar concentration.

QUERY: Reported pIC50 for COc1cc2nccc(Oc3ccc4c(C(=O)Nc5ccc(Cl)cc5)cccc4c3)c2cc1OC : what is it?
RESULT: 7.60

====

System: HUVEC
Assay: cells
Settings: Homo sapiens
Description: Inhibition of VEGF-induced proliferation of HUVEC cells
testReadout: pIC50
Please keep in mind that pIC50 is minus log10 of the molar concentration; only the number is needed.

QUERY: Reported pIC50 for COc1cc2nccc(Oc3ccc4c(C(=O)NC5CC5)cccc4c3)c2cc1OC : what is it?
RESULT: 9.00

QUERY: Quick check: pIC50 of COc1cc2nccc(Oc3ccc4c(C(=O)NC5CCCC5)cccc4c3)c2cc1OC ?
RESULT: 8.15

QUERY: Item under review: COc1cc2nccc(Oc3ccc4c(C(=O)Nc5ccc(Cl)cc5)cccc4c3F)c2cc1OC . Reported pIC50?
RESULT: 8.70

QUERY: For the molecule shown here, COc1cc2nccc(Oc3ccc4c(C(=O)Nc5ccncc5)cccc4c3)c2cc1OC , give the reported pIC50.
RESULT: 8.70

QUERY: # input molecule: COc1cc2nccc(Oc3ccc4c(C(=O)Nc5nccs5)cccc4c3)c2cc1OC ; wanted: its pIC50
RESULT: 8.70

QUERY: Query: pIC50; subject: CNc1nccc(Oc2ccc3c(C(=O)Nc4ccc(Cl)cc4)cccc3c2)n1
RESULT: 6.53

QUERY: Please give the measured pIC50 for this molecule: CNC(=O)c1cc(Oc2ccc3c(C(=O)Nc4ccc(Cl)cc4)cccc3c2)ccn1
RESULT: 6.68

QUERY: Param item = COc1cc2nccc(Oc3cc4cccc(C(=O)Nc5ccc(Cl)cc5)c4cn3)c2cc1OC ; retrieve measured pIC50.
RESULT: 6.76

QUERY: I'd like to know its pIC50. The molecule in question is COc1cc2nccc(Oc3ccc4c(C(=O)Nc5ccc(Cl)cc5)cccc4c3)c2cc1C(N)=O
RESULT: 8.52

QUERY: Look up pIC50: COc1cc2nccc(Oc3ccc4c(C(=O)Nc5cccc(F)c5)cccc4c3)c2cc1OC
RESULT: 8.52

The origin of these recorded values is ChEMBL document CHEMBL1144685.
